Sourced from patent US4570013A

assay: acute toxicity (DL50); settings: mouse, in vivo, ip; read-out: DL50 ip
Quantity Measured: LD50 (mg/kg)

{"columns": ["Compound", "Numeric Result"],
 "data": [
  ["COc1ccccc1OCC(O)COC(=O)Cc1ccc(-c2ccccc2)cc1 (stereo not shown)", 260]
]}

----------
assay: in vivo; conditions: rat, po
Catalogue of molecules with associated TD50

{"columns": ["Molecule", "TD50, mg/kg"],
 "data": [
  ["O=C(Cc1ccc(-c2ccccc2)cc1)Nc1ccccn1 [Diphenpyramide]", 76],
  ["COc1ccccc1OCC(O)COC(=O)Cc1ccc(-c2ccccc2)cc1 (stereo not drawn) [Compound Ia]", 61.7],
  ["O=C(O)Cc1ccc(-c2ccccc2)cc1 [reference compound]", 16.5]
]}

----------
system: platelet aggregation induced by arachidonic acid; assay: platelet aggregation induced by arachidonic acid in vitro (method of Born); assay type: cell-based, guinea pigs; details: Cavia porcellus, guinea pig platelet-enriched plasma, read-out: IC50, anti aggregating activity
pIC50: −log10 of the molar value.

{"columns": ["Compound", "pIC50"],
 "data": [
  ["COc1ccccc1OCC(O)COC(=O)Cc1ccc(-c2ccccc2)cc1 (stereo not shown) [Compound Ia]", 3.91]
]}

----------
experiment: gastrolesive action after single doses; settings: rat, in vivo, po

{"columns": ["Molecule", "TD50"],
 "data": [
  ["COc1ccc2cc(C(C)C(=O)O)ccc2c1 (stereo not shown) [Naproxen, reference compound]", "17 mg/kg"]
]}

----------
assay: acute toxicity (DL50); conditions: mouse, in vivo, po; read-out: DL50 orally

{"columns": ["Compound", "LD50 (mg/kg)"],
 "data": [
  ["COc1ccccc1OCC(O)COC(=O)Cc1ccc(-c2ccccc2)cc1 (stereo not shown)", 3330]
]}
